- targetOfAssay: human NTCP (Homo sapiens, UniProt Q14973)
- protocolSummary: Screening taurocholate uptake assay (96-well, [14C]taurocholate, 10 µM drug)
- protocolConditions: combined ranking from functional and binding assay B-scores
Structures can show the parent of a compound that is named as a salt.
property: Ranking score
A bare number is all that is needed in reply.

>>> valueobserved("Fc1ccc([C@@H]2CCNC[C@H]2COc2ccc3c(c2)OCO3)cc1 [Paroxetine Hydrochloride]")
918.273

Tell me the measured Ranking score of CC(C)(N)Cc1ccccc1.Cl [Phentermine hydrochloride] , please. 1114.52

Tell me the measured Ranking score of CCCCC1C(=O)N(c2ccccc2)N(c2ccc(O)cc2)C1=O (stereo not drawn) , please. 1000.56

----------
- targetOfAssay: human NTCP (Homo sapiens, UniProt Q14973)
- protocolSummary: Screening fluorescent competitive Myrcludex B-FITC binding assay (96-well, 10 µM drug)
- protocolConditions: Prestwick library screen, 10 µM drug; B-score of Myrcludex B-FITC binding
Counter-ions that a name gives are not always drawn.
property: B-score binding assay

Below are worked cases with known answers.
>>> valueobserved("O=C(O)/C=C\\C(=O)O.O=C(O)/C=C\\C(=O)O.c1ccc2nc(N3CCNCC3)ccc2c1 [Quipazine dimaleate salt]")
1.213
>>> valueobserved("CCCC(=O)Nc1ccc(OCC(O)CNC(C)C)c(C(C)=O)c1 (stereo not drawn) [Acebutolol hydrochloride]")
0.049
>>> valueobserved("CN1CCN(CC(=O)N2c3ccccc3C(=O)Nc3cccnc32)CC1 [Pirenzepine dihydrochloride]")
0.089
>>> valueobserved("O=C(CCCN1CCN(c2ccccn2)CC1)c1ccc(F)cc1")
0.326
>>> valueobserved("Clc1ccc(C(Cn2ccnc2)OCc2c(Cl)cccc2Cl)c(Cl)c1 (stereo not drawn)")
2.982

# next molecule below
Tell me the measured B-score binding assay of "C[C@@H](O)[C@H]1C(=O)N2C(C(=O)O)=C(S[C@@H]3CN[C@H](C(=O)N(C)C)C3)[C@H](C)[C@H]12" , please. 0.55

----------
- targetOfAssay: human NTCP (Homo sapiens, UniProt Q14973)
- Sequence (Q14973 1-349): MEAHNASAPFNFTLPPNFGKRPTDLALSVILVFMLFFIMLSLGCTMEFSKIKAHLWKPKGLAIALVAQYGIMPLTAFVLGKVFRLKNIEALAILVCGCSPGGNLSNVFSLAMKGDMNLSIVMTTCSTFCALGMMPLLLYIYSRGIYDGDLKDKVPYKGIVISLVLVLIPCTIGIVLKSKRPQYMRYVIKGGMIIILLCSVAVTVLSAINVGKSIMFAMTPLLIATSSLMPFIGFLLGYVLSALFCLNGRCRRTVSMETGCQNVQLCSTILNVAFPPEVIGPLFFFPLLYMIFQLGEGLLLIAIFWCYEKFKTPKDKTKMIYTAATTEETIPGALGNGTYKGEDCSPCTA
- protocolSummary: Screening taurocholate uptake assay (96-well, [14C]taurocholate, 10 µM drug)
- protocolConditions: screen, 10 µM drug, taurocholate uptake
Structures can show the parent of a compound that is named as a salt.
# note: boundary value -0.2 maps to Condition not met; B-score functional assay below it maps to Condition met

>>> labelvalue("CCN[C@H]1C[C@H](C)S(=O)(=O)c2sc(S(N)(=O)=O)cc21 [Dorzolamide hydrochloride]")
"Condition met"
>>> labelvalue("CC(=O)OCC1=C(C(=O)O)N2C(=O)[C@@H](NC(=O)Cc3cccs3)[C@H]2SC1 [Cephalothin sodium salt]")
"Condition met"
>>> labelvalue("Nc1ccc(S(N)(=O)=O)cc1 [Sulfanilamide]")
"Condition not met"

Does this compound meet the criterion B-score functional assay < -0.2? O=C1CCc2cc(OCCCCc3nnnn3C3CCCCC3)ccc2N1 [Cilostazol] Condition not met
